# credit: patent US20090253709A1

Exercise: state measured viability at 48 h, 10 µM for each of the molecules provided.
Assay: MTT assay in BJ1 cells
Format: cell-based
Conditions: human, hTERT-BJ1-PTERT(3.4)-SEAP cells; BJ1; compound concentration 10 μM; read-out: MTT (Inhibition μM ± SD)
Reply numerically in %, unit not repeated.

Fill in the blank: the reported viability at 48 h, 10 µM of CN(C)CCC(=O)Nc1ccc2c(c1)C(=O)c1cc(NC(=O)CCN(C)C)ccc1C2=O is ____.
30

Returns the measured viability at 48 h, 10 µM for the input molecule. Input: O=C(CN1CCNCC1)Nc1ccc2c(c1)C(=O)c1cc(NC(=O)CN3CCNCC3)ccc1C2=O
85

For the molecule Nc1ccc2c(c1)C(=O)c1cc(N)ccc1C2=O , what viability at 48 h, 10 µM is on record?
83

Quick one: viability at 48 h, 10 µM for O=C(CCN1CCCCC1)Nc1ccc2c(c1)C(=O)c1cc(NC(=O)CCN3CCCCC3)ccc1C2=O ?
54

Please look up its viability at 48 h, 10 µM: CCCC(=O)Nc1ccc2c(c1)C(=O)c1cc(NC(=O)CCC)ccc1C2=O
51

====

Assay: MTT assay in BJ1 cells
Assay type: cell-based
Conditions: human, hTERT-BJ1-PTERT(3.4)-SEAP cells; BJ1; compound concentration 10 μM; read-out: MTT (Inhibition μM ± SD)
reported.endpoint: viability at 48 h, 10 µM (%)
Reply with just the number (in %).

What value of viability at 48 h, 10 µM has been recorded for this entry: O=C(CCN1CCCC1)Nc1ccc2c(c1)C(=O)c1cc(NC(=O)CCN3CCCC3)ccc1C2=O [Compound 18]
68

Tell me the measured viability at 48 h, 10 µM of CCCCNCCC(=O)Nc1ccc2c(c1)C(=O)c1cc(NC(=O)CCNCCCC)ccc1C2=O [Compound 17] , please.
70

Fill in the blank: the reported viability at 48 h, 10 µM of O=C(Cc1ccccc1)Nc1ccc2c(c1)C(=O)c1cc(NC(=O)Cc3ccccc3)ccc1C2=O [Compound 30, 2,7-Bis(phenylacetamido)anthraquinone] is ____.
80

What value of viability at 48 h, 10 µM has been reported for the following compound? O=C1c2ccc(NC(=O)C3CC3)cc2C(=O)c2cc(NC(=O)C3CC3)ccc21 [Compound 32]
44

Any idea what its viability at 48 h, 10 µM is? The compound is O=C(CCCCl)Nc1ccc2c(c1)C(=O)c1cc(NC(=O)CCCCl)ccc1C2=O [Compound 25, 2,7-Bis(4-chlorobutyramido)anthraquinone]
62

What does the record list as viability at 48 h, 10 µM for CCCNCC(=O)Nc1ccc2c(c1)C(=O)c1cc(NC(=O)CNCCC)ccc1C2=O [Compound 9] ?
44

Fill in the blank: the reported viability at 48 h, 10 µM of CN1CCN(CC(=O)Nc2ccc3c(c2)C(=O)c2cc(NC(=O)CN4CCN(C)CC4)ccc2C3=O)CC1 [Compound 11] is ____.
69

====

Assay: MTT assay in BJ1 cells
Assay type: cell-based
Conditions: human, hTERT-BJ1-PTERT(3.4)-SEAP cells; BJ1; compound concentration 100 μM; read-out: MTT (Inhibition μM ± SD)
Mark Condition met only when viability at 48 h, 100 µM stays strictly below 50%. Values equal to the cut-off are Condition not met.

Given O=C1c2ccc(NC(=O)C3CCCCC3)cc2C(=O)c2cc(NC(=O)C3CCCCC3)ccc21 [Compound 34] , is recorded viability at 48 h, 100 µM strictly lower than 50%?
Condition not met

Regarding O=C(CCCl)Nc1ccc2c(c1)C(=O)c1cc(NC(=O)CCCl)ccc1C2=O [Compound 15] , kindly confirm whether its viability at 48 h, 100 µM is beneath 50%.
Condition met

Is viability at 48 h, 100 µM of CC(C)NCC(=O)Nc1ccc2c(c1)C(=O)c1cc(NC(=O)CNC(C)C)ccc1C2=O [Compound 13] strictly below 50%?
Condition met

Problem: For the molecule Nc1ccc2c(c1)C(=O)c1cc(N)ccc1C2=O [Compound 2, 2,7-Diaminoanthraquinone] , is viability at 48 h, 100 µM under 50%?
Condition not met

Does the reported viability at 48 h, 100 µM of CCNCC(=O)Nc1ccc2c(c1)C(=O)c1cc(NC(=O)CNCC)ccc1C2=O [Compound 10] stay below 50%?
Condition met

Is it true that viability at 48 h, 100 µM reported for O=C1c2ccc(NC(=O)C3CC3)cc2C(=O)c2cc(NC(=O)C3CC3)ccc21 [Compound 32] is less than 50%?
Condition met

Bench note: check whether CCC(=O)Nc1ccc2c(c1)C(=O)c1cc(NC(=O)CC)ccc1C2=O [Compound 27, 2,7-Bis(propionamido)anthraquinone] shows viability at 48 h, 100 µM below 50%
Condition met

# TODO verify viability at 48 h, 100 µM < 50% strictly for this molecule: CN1CCN(CC(=O)Nc2ccc3c(c2)C(=O)c2cc(NC(=O)CN4CCN(C)CC4)ccc2C3=O)CC1 [Compound 11]
Condition met
